# SYSTEM UNDER TEST: T1, GFP-9S library array, motif 4 ND N98G;D124R (synthetic construct, N98G;D124R)
# T1 chain: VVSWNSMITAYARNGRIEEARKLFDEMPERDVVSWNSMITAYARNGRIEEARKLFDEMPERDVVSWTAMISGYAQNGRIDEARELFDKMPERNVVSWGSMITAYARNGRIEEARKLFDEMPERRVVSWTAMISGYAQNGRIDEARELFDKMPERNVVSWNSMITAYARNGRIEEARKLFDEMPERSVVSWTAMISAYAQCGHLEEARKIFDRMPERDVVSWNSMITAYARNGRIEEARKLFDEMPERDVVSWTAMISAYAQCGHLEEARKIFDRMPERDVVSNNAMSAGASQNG
# ASSAY METHOD TEXT: high-throughput RNA pulldown from lysate on Ni-NTA beads; HRP: 50 mM Tris pH 8, 150 mM NaCl, 1 mM beta-mercaptoethanol, 50 ug/ml BSA, 3 ug/ml yeast RNA, 0.5% heparin; ITC and FP: Tris pH 8, 200 mM KCl, 5% glycerol; MST: 50 mM Tris pH 8, 200 mM NaCl, 1 mM DTT, BSA, heparin, 0.05% Tween 20
# STUDY CONDITIONS: tags: N-terminal His-eGFP; label: 5' Cy5
pKd: −log10 of the molar value.
VALUE KIND: pKd

[[record]]
binder = "AUUACACGUGA (ssRNA) [Cy5-rpoA]"
obs_value = 7.00

[[record]]
binder = "AUUAGACGUGA (ssRNA) [Cy5-rpoA-G]"
obs_value = 6.94


Reference source: paper PMC8809517
